- COND: in ethyl acetate, 298.35 K

| SMILES STR | solubility (mole fraction) |
| --- | --- |
| CC1(C)COP(=O)(C(C)(C)O)OC1 | 0.00141 |

Where do these numbers come from? They come from BigSolDB 2.1.
